# inhibition per entry
target: 11-beta-hydroxysteroid dehydrogenase 1 (Homo sapiens, UniProt P28845); assay: Inhibition of human recombinant 11beta-HSD1 expressed in HEK293 cells assessed as inhibition of [1,2,-3H]-cortisone to [3H]cortisol preincubated at 10 uM for 10 mins before substrate addition by scintillation counting; format: cell-based
Sequence (P28845 whole entry, looked up): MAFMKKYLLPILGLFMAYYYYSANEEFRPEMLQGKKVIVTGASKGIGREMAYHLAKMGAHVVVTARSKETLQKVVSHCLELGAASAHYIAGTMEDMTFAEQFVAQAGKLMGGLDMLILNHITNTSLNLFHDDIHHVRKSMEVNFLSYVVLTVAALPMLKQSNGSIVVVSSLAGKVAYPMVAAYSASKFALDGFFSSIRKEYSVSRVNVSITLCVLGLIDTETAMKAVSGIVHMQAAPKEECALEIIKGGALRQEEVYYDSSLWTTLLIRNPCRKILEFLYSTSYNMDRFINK

Consider the reported inhibition for these compounds:
# smiles_string, test_system, inhibition
measured = [
    ("CC(=O)[C@H]1CC[C@H]2[C@@H]3CCC4=CC(=O)CC[C@]4(C)[C@H]3[C@@H](NC[C@@H](CO)NC(=O)OC(C)(C)C)C[C@]12C", "11-beta-hydroxysteroid dehydrogenase 1 (Homo sapiens, UniProt P28845)", "< 70%"),
    ("CC(=O)[C@H]1CC[C@H]2[C@@H]3CCC4=CC(=O)CC[C@]4(C)[C@H]3[C@@H](NC[C@H](N)C(=O)O)C[C@]12C", "11-beta-hydroxysteroid dehydrogenase 1 (Homo sapiens, UniProt P28845)", "< 70%"),
]

Consider now this further compound.
Value lookup for inhibition; key = "CC(=O)[C@H]1CC[C@H]2[C@@H]3CCC4=CC(=O)CC[C@]4(C)[C@H]3[C@@H](NC[C@H]3COC(C)(C)N3C(=O)OC(C)(C)C)C[C@]12C"
< 70%
